Measured values drawn from paper PMC10873978 for this set.

Tested on: MCF7 cell line
Assay: In vitro cytotoxic activity, MTT method, MCF7
Assay type: cell-based, human
Settings: MCF7, 0.0975 µMol
Reported Viability % by item:
Report the figure in % without appending any unit label.

>>> df
                                   molecule  result_units  observed_value
0  CC(=O)c1ccc(NC(=O)CSc2nc(C)c3c(c2C#N)CC(C)(O)C(C(C)=O)C3c2ccc(N(C)C)cc2)cc1 (stereo not shown)             %         96.5544
1  CC(=O)C1C(c2ccc(N(C)C)cc2)c2c(C)nc(SCC(N)=O)c(C#N)c2CC1(C)O (stereo not shown)             %           103.6
2  CC(=O)C1C(c2ccc(N(C)C)cc2)c2c(C)nc(SCC(=O)Nc3ccccc3)c(C#N)c2CC1(C)O (stereo not shown)             %           103.5

Query block: Could you share which Viability % value was measured for CC(=O)C1C(c2ccc(N(C)C)cc2)c2c(C)nc(SCC#N)c(C#N)c2CC1(C)O (stereo not shown) ?
Result block: 74.5543

----------
System: MCF7 cell line
Assay: In vitro cytotoxic activity, MTT method, MCF7
Type: cell-based, human
Conditions: MCF7, 12.5 µMol
So basically, if Viability % comes in under 3% it's true (1), and if it's 3% or more it's false (0).

compound	study.target	label.class
CC(=O)C1C(c2ccc(N(C)C)cc2)c2c(C)nc(SCC(=O)Nc3ccc(C)cc3)c(C#N)c2CC1(C)O (stereo not shown) [Compound 7b]	MCF7 cell line	false (0)

Query block: Please check: Viability % for CC(=O)C1C(c2ccc(N(C)C)cc2)c2c(C)[nH]c(=S)c(C#N)c2CC1(C)O (stereo not shown) [Compound 1] , strictly under 3% or not?
Result block: false (0)

Query block: And CC(=O)C1C(c2ccc(N(C)C)cc2)c2c(C)nc(SCC(=O)Nc3ccc(Cl)cc3)c(C#N)c2CC1(C)O (stereo not shown) [Compound 7c] ?
Result block: false (0)

Query block: And COc1cccc2c1C(=O)c1c(O)c3c(c(O)c1C2=O)C[C@@](O)(C(=O)CO)C[C@@H]3O[C@H]1C[C@H](N)[C@H](O)[C@H](C)O1 [Doxorubicin, reference compound] ?
Result block: true (1)

Query block: And CCOC(=O)CSc1nc(C)c2c(c1C#N)CC(C)(O)C(C(C)=O)C2c1ccc(N(C)C)cc1 (stereo not shown) [Compound 4] ?
Result block: false (0)

Query block: And CSc1nc(C)c2c(c1C#N)CC(C)(O)C(C(C)=O)C2c1ccc(N(C)C)cc1 (stereo not shown) [Compound 3] ?
Result block: true (1)

Query block: And CC(=O)C1C(c2ccc(N(C)C)cc2)c2c(C)nc(SCC(N)=O)c(C#N)c2CC1(C)O (stereo not shown) [Compound 5] ?
Result block: false (0)

----------
Test: Cytotoxicity on normal cell line WI-38
Format: cell-based, human
Conditions: human, % viability
reported.metric: viability at 25 µM (%)
Report the figure in % without appending any unit label.

Query block: Could you share which viability at 25 µM value was measured for COc1cccc2c1C(=O)c1c(O)c3c(c(O)c1C2=O)C[C@@](O)(C(=O)CO)C[C@@H]3O[C@H]1C[C@H](N)[C@H](O)[C@H](C)O1 [Doxorubicin, reference compound] ?
Result block: 31.1
